system: Flt-1 receptor; experiment: Flt-1 receptor binding ELISA (inhibition of biotinylated native VEGF binding to Flt-IgG); conditions: second figure of the cell, fold less binding than native VEGF
Sequence (P17948 27-327 limits assumed): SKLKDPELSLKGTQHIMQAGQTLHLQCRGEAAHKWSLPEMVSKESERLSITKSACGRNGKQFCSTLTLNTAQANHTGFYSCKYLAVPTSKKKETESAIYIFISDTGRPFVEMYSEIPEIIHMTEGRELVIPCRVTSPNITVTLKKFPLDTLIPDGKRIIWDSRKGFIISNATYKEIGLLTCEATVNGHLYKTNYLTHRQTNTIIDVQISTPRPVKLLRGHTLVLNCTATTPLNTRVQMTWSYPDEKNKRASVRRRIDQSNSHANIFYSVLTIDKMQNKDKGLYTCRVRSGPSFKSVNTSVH
REPORTED METRIC: Relative Binding Affinity, FLT-1 Receptor: ratio to native VEGF (8–109)

>>> val("LK-VRB-8s* (ligand) APMAEGGGQNHHEVVKFMDVLQRSYCHPIETLVDIFQEYPDEIEYIFKPSCVPLMRCGGCCNSEMRECVPTEESNITMQIMRIKPHQGQHIGEMSFLQHNKCECRPKKD")
"/>21000"
>>> val("LK-VRB-15s (ligand, human, UniProt P15692-4 27-135, looked up) APMAEGGGQNHHEVVKFMDVLQRSSCHPIETLVDIFQEYPDEIEYIFKPSCVPLMRCGGCCNSEMRECVPTEESNITMQIMRIKPHQGQHIGEMSFLQHNKCECRPKKD")
"/>21000"
>>> val("LK-VRB-12s (ligand, human, UniProt P15692-4 27-135, looked up) APMAEGGGQNHHEVVKFEDVYRRSYCHPIETLVDIFQEYPDEIEYIFKPSCVPLMRCGGCCNSEMRECVPTEESNITMQIMRIKPHQGQHIGEMSFLQHNKCECRPKKD")
"/>5600"
>>> val("LK-VRB-21s (ligand, human, UniProt P15692-4 27-135, looked up) APMAEGGGQNHHEVVKFEDVLRRSSCHPIETLVDIFQEYPDEIEYIFKPSCVPLMRCGGCCNSEGLECVPTEESNITMQIMRIKPHQGQHIGEMSFLQHNKCECRPKKD")
"/>5600"
